Attribute: ΔTm
# Target Entity: purified DDK (Homo sapiens)
# Construct: His6-Smt3 (SUMO) (N, cleaved yes); made in house; host or cells: E. coli BL21-RIPL (pKT37, pETDuet-1 vector)
# Measurement Description: DDK thermal stability shift assay (TSA)
# Type: binding
# Measurement Setup: library screen, 20 µM compound
Observable: ΔTm (°C)

1. NC(=O)Nc1sc(-c2ccccc2)cc1C(N)=O	1.2
2. O=C1NC(=O)C(c2cn(CCCn3ccnc3)c3ccccc23)=C1Nc1ccccc1	0.2
3. COc1cc2ncnc(Nc3cccc(Cl)c3)c2cc1OC	0.3
4. CS(=O)(=O)O.Cn1cc(C2=C(c3cn(CCCSC(=N)N)c4ccccc34)C(=O)NC2=O)c2ccccc21 [Ro 31-8220 mesylate]	1.5
5. Brc1c(Br)c(Br)c2[nH]nnc2c1Br	2.5
6. C[S+]([O-])c1ccc(-c2nc(-c3ccc(F)cc3)c(-c3ccncc3)[nH]2)cc1.Cl (centres unmarked) [SB 203580 hydrochloride]	0
7. O=C(c1ccc(Nc2nccc(-c3cc4ccccc4s3)n2)cc1)N1CCC(N2CCCC2)CC1 [IKK Inhibitor VII]	1.7
8. Cc1ccc(NC(=O)c2cccc(N(C)C)c2)cc1NC(=O)c1ccc(O)cc1	0.5
9. Cc1nc2cc3nc(-c4cccs4)cnc3cc2n1C	0
10. COc1cc2ncnc(Nc3ccc(Cl)cc3F)c2cc1OC.Cl [ZM 306416 hydrochloride]	0
11. O=C(Nc1cc(Cl)cc2c1[nH]c1cnccc12)c1cccnc1	0
12. NC(=O)Nc1cc(-c2ccccc2)sc1C(N)=O	0.3
13. Cn1cnc2cc3c(Nc4cccc(Br)c4)ncnc3cc21	0.2
14. CN1CCC(Nc2ncc3ncnc(Nc4ccc(F)c(Cl)c4)c3n2)CC1.Cl.Cl [BIBX 1382 dihydrochloride]	0.8
15. Cc1[nH]c(/C=C2\C(=O)Nc3ccc(S(=O)(=O)N(C)c4cccc(Cl)c4)cc32)c(C)c1C(=O)N1CCN(C)CC1	0.2
16. O=C1Nc2ccc(Cl)cc2/C1=C/c1cc(Cl)c(O)c(Cl)c1 [PKR Inhibitor, NegaKve Control]	0.2
17. O=C1NC(=O)C(=Cc2ccc(-c3ccc(F)cc3O)o2)S1	0.3

* * *

# Target Entity: purified DDK (Homo sapiens, UniProt O00311)
# Construct: His6-Smt3 (SUMO) (N, cleaved yes); made in house; host or cells: E. coli BL21-RIPL (pKT37, pETDuet-1 vector)
# Sequence (O00311 whole entry): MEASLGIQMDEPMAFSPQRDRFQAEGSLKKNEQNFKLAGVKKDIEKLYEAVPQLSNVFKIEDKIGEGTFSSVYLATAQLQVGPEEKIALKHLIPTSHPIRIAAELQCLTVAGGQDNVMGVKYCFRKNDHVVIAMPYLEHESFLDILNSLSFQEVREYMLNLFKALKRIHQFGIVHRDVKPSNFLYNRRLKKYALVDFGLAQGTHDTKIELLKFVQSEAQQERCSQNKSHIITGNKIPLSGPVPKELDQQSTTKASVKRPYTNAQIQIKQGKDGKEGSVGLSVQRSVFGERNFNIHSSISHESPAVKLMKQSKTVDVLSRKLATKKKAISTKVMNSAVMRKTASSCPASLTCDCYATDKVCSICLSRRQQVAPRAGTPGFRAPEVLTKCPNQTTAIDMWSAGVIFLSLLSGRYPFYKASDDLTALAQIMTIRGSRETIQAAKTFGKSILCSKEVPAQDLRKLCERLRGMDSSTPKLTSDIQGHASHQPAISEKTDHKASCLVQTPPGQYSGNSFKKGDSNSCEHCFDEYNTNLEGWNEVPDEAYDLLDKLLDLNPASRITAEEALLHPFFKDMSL
# Sequence (Q9UBU7 341-674 partner limits assumed): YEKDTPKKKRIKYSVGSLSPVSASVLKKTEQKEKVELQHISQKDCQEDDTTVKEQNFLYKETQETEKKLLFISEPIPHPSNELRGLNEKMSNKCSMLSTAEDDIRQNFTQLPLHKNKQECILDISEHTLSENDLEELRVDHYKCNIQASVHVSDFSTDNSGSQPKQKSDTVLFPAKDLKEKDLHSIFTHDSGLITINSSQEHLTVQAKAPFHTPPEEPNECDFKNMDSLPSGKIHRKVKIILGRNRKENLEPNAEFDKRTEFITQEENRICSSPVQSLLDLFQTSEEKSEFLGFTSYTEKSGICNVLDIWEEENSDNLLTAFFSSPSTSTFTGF
# Measurement Description: DDK thermal stability shift assay (TSA)
# Assay type: binding
# Measurement Setup: library screen, 20 µM compound
Observable: ΔTm (°C)

1. Nc1ncnc2c1cnn2-c1ccccc1	0.6
2. C/C(O)=C(\C#N)C(=O)Nc1cc(Br)ccc1Br	0
3. Nc1ncnc2c1c(I)cn2[C@@H]1O[C@H](CO)[C@@H](O)[C@H]1O	1.9
4. O=C1Cc2c([nH]c3ccc(Br)cc23)-c2ncccc2N1	0.6
5. Cc1cc(C(C)Nc2ccccc2)c2nc(N3CCOCC3)cc(=O)n2c1 (centres unmarked)	0
6. Cl.Cl.NC(N)=NCCNS(=O)(=O)c1cccc2cnccc12 [HA 1004, Dihydrochloride]	0
7. O=c1cc(-c2cccc3c2Sc2ccccc2S3)oc(N2CCOCC2)c1	1.1
8. Cl.O=c1cc(N2CCOCC2)oc2c(-c3ccccc3)cccc12 [LY 294002 hydrochloride]	0.8
